# SYSTEM: T1, CathepsinG, from human neutrophils (human, UniProt P08311 21-244)
# T1 sequence (looked up): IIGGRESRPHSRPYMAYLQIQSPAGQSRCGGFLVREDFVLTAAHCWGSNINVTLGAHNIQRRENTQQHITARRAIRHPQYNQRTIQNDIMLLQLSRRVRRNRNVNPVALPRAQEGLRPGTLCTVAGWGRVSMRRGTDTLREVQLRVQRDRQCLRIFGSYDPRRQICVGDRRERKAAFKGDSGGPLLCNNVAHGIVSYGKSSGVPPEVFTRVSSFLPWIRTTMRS
# TEST_DESCRIPTION: cell-based or functional assay
READOUT: IC50 (nmol)
Express your answer in nmol, writing the number without its unit.

Looking for the measured IC50 of FCTKSDPPICS (HELM PEPTIDE1{F.C.T.K.S.D.P.P.I.C.S.[dA].D}$PEPTIDE1,PEPTIDE1,2:R3-10:R3|PEPTIDE1,PEPTIDE1,1:R1-13:R2$$$V2.0; SMILES CC[C@H](C)[C@@H]1NC(=O)[C@@H]2CCCN2C(=O)[C@@H]2CCCN2C(=O)[C@H](CC(=O)O)NC(=O)[C@H](CO)NC(=O)[C@H](CCCCN)NC(=O)[C@H]([C@@H](C)O)NC(=O)[C@@H]2CSSC[C@H](NC1=O)C(=O)N[C@@H](CO)C(=O)N[C@H](C)C(=O)N[C@@H](CC(=O)O)C(=O)N[C@@H](Cc1ccccc1)C(=O)N2) [Example 68] , can you help?
59
